System: SU-DHL-4 cells
assay notes: Inhibitory effect on cell viability in SU-DHL-4 cell line (Test Example 1)
Type: cell-based, human
particulars: SU-DHL-4 cells, 72 hours, Cell Counting Kit-8; concentration showing 90% inhibition of cell viability; read-out: SU-DHL-4 Cell Viability Inhibition Rate IC90
metric name: IC90 (nM)

Use the examples below as a reference point.
CCC(=O)N1c2ccccc2[C@H](Nc2ccc(NC(=O)NCC(=O)NC3CCC(N[C@@H]4C[C@H](C)N(C(=O)CC)c5ccccc54)CC3)cc2)C[C@@H]1C (relative stereo)
12.4
CCC(=O)N1c2ccccc2[C@H](Nc2ccc(C(=O)NCC(=O)CNC(=O)c3ccc(C4=NCc5nnc(C)n5-c5sc(C)c(C)c54)cc3)cc2)C[C@@H]1C [Compound 14l]
0.6

1 = CCC(=O)N1c2ccccc2[C@H](Nc2ccc(C(=O)c3cnc4n3CCN(C(=O)c3ccc(N[C@@H]5C[C@H](C)N(C(=O)CC)c6ccccc65)cc3)C4)cc2)C[C@@H]1C
2 = CCC(=O)N1c2ccccc2[C@H](Nc2ccc(NC(=O)C3CN(C(=O)N[C@H]4CC[C@H](N[C@@H]5C[C@H](C)N(C(=O)CC)c6ccccc65)CC4)C3)cc2)C[C@@H]1C
Req: Between the entries labeled 1 and 2 , whose measured IC90 is lower? Provide the label of your selected option as the answer.
Resp: 1
(1: 0.11 nM, 2: 7 nM)

---

study system: interaction between BRD2 and E3 ligase DCAF16 (Homo sapiens)
Construct: expressed in transfected cells; host or cells: HEK293
Sequence (P25440 whole entry): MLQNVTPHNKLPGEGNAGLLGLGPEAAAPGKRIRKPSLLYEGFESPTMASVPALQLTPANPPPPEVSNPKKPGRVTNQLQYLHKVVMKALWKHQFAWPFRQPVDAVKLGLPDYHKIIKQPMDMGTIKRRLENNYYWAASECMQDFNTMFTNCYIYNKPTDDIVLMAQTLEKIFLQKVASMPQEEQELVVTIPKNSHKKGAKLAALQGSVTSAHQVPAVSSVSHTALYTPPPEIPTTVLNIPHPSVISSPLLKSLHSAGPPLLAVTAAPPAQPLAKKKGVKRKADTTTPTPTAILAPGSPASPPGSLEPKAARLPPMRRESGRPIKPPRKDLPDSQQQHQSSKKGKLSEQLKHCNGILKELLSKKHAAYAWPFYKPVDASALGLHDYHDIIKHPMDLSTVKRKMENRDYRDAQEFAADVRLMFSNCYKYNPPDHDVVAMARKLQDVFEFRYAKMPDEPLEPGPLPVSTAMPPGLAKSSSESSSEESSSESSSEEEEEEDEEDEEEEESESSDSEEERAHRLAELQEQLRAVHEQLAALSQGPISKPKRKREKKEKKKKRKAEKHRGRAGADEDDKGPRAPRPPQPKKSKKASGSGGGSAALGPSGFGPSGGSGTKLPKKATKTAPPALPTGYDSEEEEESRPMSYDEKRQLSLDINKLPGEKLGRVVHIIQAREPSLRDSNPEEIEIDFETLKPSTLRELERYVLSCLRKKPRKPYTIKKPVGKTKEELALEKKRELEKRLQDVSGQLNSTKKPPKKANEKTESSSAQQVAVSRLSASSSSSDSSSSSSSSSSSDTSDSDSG
Sequence (Q9NXF7 whole entry partner): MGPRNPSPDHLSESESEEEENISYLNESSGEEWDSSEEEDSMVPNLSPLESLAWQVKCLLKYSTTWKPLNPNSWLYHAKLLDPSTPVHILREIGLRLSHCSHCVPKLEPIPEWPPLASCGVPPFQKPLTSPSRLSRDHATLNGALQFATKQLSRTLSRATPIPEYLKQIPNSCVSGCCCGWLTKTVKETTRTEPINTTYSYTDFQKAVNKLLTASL
assay notes: Verification of BET-DCAF16 interaction, comparative test with known compounds (Test Example 8)
Format: cell-based
particulars: test compound 1.0 μmol/L; HEK293 cells expressing Nluc-BRD2 and DCAF16-HaloTag; MLN4924 instead of bortezomib; substrate diluted 200-fold
metric name: BRET Ratio

CCC(=O)N1c2ccccc2[C@H](Nc2ccc(NC(=O)CNC(=O)N[C@H]3CC[C@H](N[C@@H]4C[C@H](C)N(C(=O)CC)c5ccccc54)CC3)cc2)C[C@@H]1C
11.91
CCC(=O)N1c2ccccc2[C@H](Nc2ccc(-n3cc(CCNC(=O)[C@H]4CC[C@H](N[C@@H]5C[C@H](C)N(C(=O)CC)c6ccccc65)CC4)nn3)cc2)C[C@@H]1C
12.45
CCNC(=O)C[C@@H]1N=C(c2ccc(SCCCCSc3ccc(C4=N[C@@H](CC(=O)NCC)c5nnc(C)n5-c5ccc(OC)cc54)cc3)cc2)c2cc(OC)ccc2-n2c(C)nnc21 [compound 1, reference compound]
1.93
CCC(=O)N1c2ccccc2[C@H](Nc2ccc(NC(=O)CCCC(=O)NC3CCN(Cc4cc(O)cc(-c5c(C)noc5C)c4)CC3)cc2)C[C@@H]1C [Compound 12c]
13.16

---

study system: interaction between BRD2 and E3 ligase DCAF16 (Homo sapiens)
Construct: expressed in transfected cells; host or cells: HEK293
assay notes: Verification of BET-DCAF16 interaction, NanoBRET in HEK293 cells (Test Example 7)
Assay type: cell-based
particulars: test compound 10 μmol/L, 2 hours; HEK293 cells expressing Nluc-BRD2 and DCAF16-HaloTag; bortezomib; average of n=3
metric name: BRET Ratio

CCC(=O)N1c2ccccc2[C@H](Nc2ccc(NC(=O)CNC(=O)N[C@H]3CC[C@H](N[C@@H]4C[C@H](C)N(C(=O)CC)c5ccccc54)CC3)cc2)C[C@@H]1C [Compound 8j]
7.07
CCC(=O)N1c2ccccc2[C@H](Nc2ccc(-n3cc(CCNC(=O)[C@H]4CC[C@H](N[C@@H]5C[C@H](C)N(C(=O)CC)c6ccccc65)CC4)nn3)cc2)C[C@@H]1C [Compound 8a]
7.27
CCC(=O)N1c2ccccc2[C@H](Nc2ccc(C(=O)N3CCn4c(-c5ccc(N[C@@H]6C[C@H](C)N(C(=O)CC)c7ccccc76)cc5)cnc4C3)cc2)C[C@@H]1C [Compound 3e]
5.96
Cc1sc2c(c1C)C(c1ccc(C(=O)NCc3cn(-c4ccc(C5=N[C@@H](CC(=O)OC(C)(C)C)c6nnc(C)n6-c6sc(C)c(C)c65)cc4)nn3)cc1)=N[C@@H](CC(=O)OC(C)(C)C)c1nnc(C)n1-2 [Compound 3b]
6.06
CCC(=O)N1c2ccccc2[C@H](Nc2ccc(NC(=O)N3CCN(C(=O)C4CCC(N[C@@H]5C[C@H](C)N(C(=O)CC)c6ccccc65)CC4)CC3)cc2)C[C@@H]1C (stereo partly shown) [Compound 7p]
6.8
CCC(=O)N1c2ccccc2[C@H](Nc2ccc(NC(=O)CCCC(=O)Nc3ccc(N[C@@H]4C[C@H](C)N(C(=O)CC)c5ccccc54)cc3)cc2)C[C@@H]1C [Compound 6k]
7.07
CCC(=O)N1c2ccccc2[C@H](Nc2ccc(C(=O)NCC(=O)CNC(=O)c3ccc(N[C@@H]4C[C@H](C)N(C(=O)CC)c5ccccc54)cc3)cc2)C[C@@H]1C [Compound 1l]
8.03
CCC(=O)N1c2ccccc2[C@H](Nc2ccc(C(=O)NCc3cn(-c4ccc(N[C@@H]5C[C@H](C)N(C(=O)CC)c6ccccc65)cc4)nn3)cc2)C[C@@H]1C [Compound 3a]
8.51
CCC(=O)N1c2ccccc2[C@H](Nc2ccc(C(=O)NCCCNC(=O)c3ccc(C4=N[C@@H](CC(=O)OC(C)(C)C)c5nnc(C)n5-c5sc(C)c(C)c54)cc3)cc2)C[C@@H]1C [Compound 1h]
6.84
CCC(=O)N1c2ccccc2[C@H](Nc2ccc(NC(=O)CCCC(=O)NC3CCN(Cc4cc(O)cc(-c5c(C)noc5C)c4)CC3)cc2)C[C@@H]1C [Compound 12c]
7.6

---

System: MYC mRNA expression in SU-DHL-4 cells
assay notes: Suppressive effect on MYC mRNA expression (Test Example 2)
Type: cell-based, human
particulars: test compound 100 nmol/L, 6 hours, qRT-PCR corrected by ACTB, GAPDH, HPRT1
Listing: Suppression Rate of MYC mRNA Expression (%) of selected compounds
Numbers only here, please. The scale is %.

Use the examples below as a reference point.
CCC(=O)N1c2ccccc2[C@H](Nc2ccc(NC(=O)CCCC(=O)Nc3cccc(Oc4ccc(NS(=O)(=O)CC)cc4-c4cn(C)c(=O)cc4OC)c3)cc2)C[C@@H]1C [Compound 16j]
92.4
CCC(=O)N1c2ccccc2[C@H](Nc2ccc(NC(=O)CNC(=O)N[C@H]3CC[C@H](N[C@@H]4C[C@H](C)N(C(=O)CC)c5ccccc54)CC3)cc2)C[C@@H]1C [Compound 8j]
97.2
CCC(=O)N1c2ccccc2[C@H](NCCCCC(=O)NCc2cn(-c3ccc(N[C@@H]4C[C@H](C)N(C(=O)CC)c5ccccc54)cc3)nn2)C[C@@H]1C (relative stereo) [Compound 12f]
97.9
CCC(=O)N1c2ccccc2[C@H](Nc2ccc(C(=O)N3CC(C(=O)N[C@H]4CC[C@H](N[C@@H]5C[C@H](C)N(C(=O)CC)c6ccccc65)CC4)C3)cc2)C[C@@H]1C [Compound 8r]
96.7

Okay, now this compound:
Req: Consider the compound CCC(=O)N1c2ccccc2[C@H](Nc2ccc(Cn3cc(C(=O)Nc4ccc(N[C@@H]5C[C@H](C)N(C(=O)CC)c6ccccc65)cc4)nn3)cc2)C[C@@H]1C [Compound 5j] and give its measured Suppression Rate of MYC mRNA Expression (%).
Resp: 96.8

---

Test system: SU-DHL-4 cells
assay notes: Inhibitory effect on cell viability in SU-DHL-4 cell line (Test Example 1)
Assay type: cell-based, human
particulars: Homo sapiens; SU-DHL-4 (wild type) cells, 72 hours; calculated using the measurement results of test example 1; read-out: SU-DHL-4 WT IC50
pIC50: −log10 of the molar value.
metric name: pIC50

Use the examples below as a reference point.
CCC(=O)N1c2ccccc2[C@H](Nc2ccc(NC(=O)CNCC(=O)Nc3ccc(N[C@@H]4C[C@H](C)N(C(=O)CC)c5ccccc54)cc3)cc2)C[C@@H]1C [Compound 5d]
9.51
CCC(=O)N1c2ccccc2[C@H](NCCCCCCCC(=O)Nc2ccc(N[C@@H]3C[C@H](C)N(C(=O)CC)c4ccccc43)cc2)C[C@@H]1C (relative stereo) [Compound 12h]
8.51
CCC(=O)N1c2ccccc2[C@H](Nc2ccc(Cc3cnc4n3CCN(C(=O)c3ccc(N[C@@H]5C[C@H](C)N(C(=O)CC)c6ccccc65)cc3)C4)cc2)C[C@@H]1C [Compound 5q]
10.05
CCC(=O)N1c2ccccc2[C@H](Nc2ccc(C(=O)NCCCNC(=O)c3ccc(N[C@@H]4C[C@H](C)N(C(=O)CC)c5ccccc54)cc3)cc2)C[C@@H]1C (relative stereo) [Compound 1a]
8.95

A = CCC(=O)N1c2ccccc2[C@H](Nc2ccc(NC(=O)CCSc3ccc(N[C@@H]4C[C@H](C)N(C(=O)CC)c5ccccc54)cc3)cc2)C[C@@H]1C (relative stereo) [Compound 4e]
B = CCC(=O)N1c2ccccc2[C@H](Nc2ccc(-c3cnn(CC(=O)Nc4ccc(C5=NCc6nnc(C)n6-c6sc(C)c(C)c65)cc4)c3)cc2)C[C@@H]1C [Compound 14a]
C = CCC(=O)N1c2ccccc2[C@H](Nc2ccc(NC(=O)N3CCN(C(=O)c4ccc(N[C@@H]5C[C@H](C)N(C(=O)CC)c6ccccc65)cc4)CC3)cc2)C[C@@H]1C (relative stereo) [Compound 6m]
D = CCC(=O)N1c2ccccc2[C@H](Nc2ccc(NC(=O)CCCC(=O)Nc3ccc(C(=O)N4CCC(=O)Nc5ccccc54)cc3)cc2)C[C@@H]1C [Compound 16o]
Req: List these items ordered by pIC50, big to small. Give me the labels in the order the question wants.
Resp: B, C, A, D
(B: 10.77, C: 10.10, A: 9.52, D: 7.60)
